run_description: pKa value was determined
Format: physicochemical
The entries below are paired with their reported pKa.
Field format: numeric only.

Worked examples, 8 compounds total:
| molecule_smiles | readout_label | observed_measurement |
| --- | --- | --- |
| Cc1cc(C)c(Nc2nc(Nc3ccc(C#N)cc3)ncc2Cl)c(C)c1 | pKa | 3.6 |
| N#Cc1ccc(Nc2nc(Cc3c(Cl)cccc3Cl)nc(NO)n2)cc1 | pKa | 2.5 |
| Cc1cc(C#N)cc(C)c1Nc1ccnc(Nc2ccc(C#N)cc2)n1 | pKa | 5.1 |
| N#Cc1ccc(Nc2nc(N)nc(Cc3c(Cl)cccc3Cl)n2)cc1 | pKa | 3.1 |
| N#Cc1ccc(Nc2nc(N)nc(Oc3c(Cl)cccc3Cl)n2)cc1 | pKa | 1.9 |
| N#Cc1ccc(Nc2nc(N)nc(Cc3c(Cl)ccc4[nH]ccc34)n2)cc1 | pKa | 3.3 |
| Cc1cc(C#N)cc(C)c1Oc1nc(Nc2ccc(C#N)cc2)ncc1Br | pKa | 2.7 |
| Cc1cc(C)c(Nc2nc(N)nc(Nc3ccc(C#N)cc3)n2)c(C)c1 | pKa | 3.8 |

Consider the compound Cc1cc(C#N)cc(C)c1Oc1nc(Nc2ccc(C#N)cc2)nc(N)c1Br and give its measured pKa.
3.5
